This collection of values is drawn from ChEMBL document CHEMBL3853272.

- Tested on: Influenza B virus
- measurement.notes: Antiviral activity at Influenza B virus infected in MDCK cells by plaque reduction assay
- Assay type: functional, cell-based
value.kind: pEC50
Note on pEC50: it is the negative log10 of concentration, concentration in mol/L.

Which pEC50 value is on record for COC(=O)C1=C(N)N(c2cccc(Cl)c2C)C2=C(C(=O)CCC2)C1c1ccc2c(c1)OCO2 (stereo unspecified) ?
4.92

---

- measurement.notes: Inhibition of Influenza A virus A/PR/8/34 RNA-dependent-RNA polymerase transfected in HEK293T cells assessed as reduction in viral growth after 24 hrs by minireplicon assay
- Type: cell-based, Influenza A virus (A/Puerto Rico/8/1934(H1N1))
- test.settings: hek-293t
Listing of entries alongside the reported pIC50.
Note on pIC50: it is the negative log10 of concentration, concentration in mol/L.

{"compound": "COC(=O)C1=C(N)N(c2cccc(Cl)c2C)C2=C(C(=O)CCC2)C1c1ccc2c(c1)OCO2 (centres undefined)", "pIC50": 4.74}

Then this compound:
Which pIC50 value is on record for NC(=O)c1c(NC(=O)c2cnn3c(C(F)F)cc(-c4ccccc4)nc23)sc2c1CCC2 ?
4.51
